B1: Peroxisome proliferator-activated receptor delta, residues 71 to 145; numbered along this chain, Q03181 (parent)
chain: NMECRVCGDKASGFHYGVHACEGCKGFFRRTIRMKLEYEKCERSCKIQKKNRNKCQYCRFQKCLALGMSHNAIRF

- Variants of: B1
- Method notes: abundance fitness (aPCA) (normalised: wild type 0, dead -1); higher = more abundant; growth selection in yeast, the domain comes from the species named
- Measurement setup: Homo sapiens
Reported abundance fitness values are given for each entry in this list.
Readout type: abundance fitness

* L64E | -0.397
* V18D | -0.396
* Q56N | -0.145
* F27P | -0.876
* S44G | 0.055
* C4Q | -0.738
* E42C | -0.394
* R59E | -0.933
* H19E | 0.136
* G8F | -0.779
* V18E | -0.398

Values from the Human Domainome abundance scans (Beltran et al. 2025)
